test system: A498 renal; assay: NCI-60 one-dose screen, 48 h (100 = growth as untreated, 0 = no growth, -100 = all killed); conditions: 10 µM
About 83,000 compounds went through this panel and 20% of them were active in at least one assay; those are over-represented in the sample as a whole.
observation type: growth (%)
Your answer is read as %, so omit the unit and give the number.

- compound: "C[C@@H]1CCC2[C@@H](C)[C@H](OC(=O)CCC(=O)NCCNC(=O)Cc3cc(=O)oc4cc(N(C)C)ccc34)O[C@@H]3O[C@]4(C)CC[C@@H]1C23OO4 (some centres undefined)"
  growth / %: 64.9

Find the measured growth of O=C1C2C(C(=O)[N]1[Hg][c]1ccccc1)C1(Cl)C(Cl)=C(Cl)C2(Cl)C1(Cl)Cl (centres undefined) with A498 renal as test system.
32.8

Write down the reported growth (system: A498 renal) of Cn1cc(-c2csc(-c3cn(CCCCN4CCCCC4)c4ccc(F)cc34)n2)c2cccnc21
81.5

Determine reported growth for O=c1[nH]cc(N(CCCl)CCCl)c(=O)[nH]1 ; test system: A498 renal.
101

====

Item-by-item account of growth
system: HCT-116 colon; experiment: NCI-60 one-dose screen, 48 h (100 = growth as untreated, 0 = no growth, -100 = all killed); conditions: 10 µM unless noted
About 83,000 compounds went through this panel and 20% of them were active in at least one assay; those are over-represented in the sample as a whole.
Use % as the unit, but write only the number.

- compound: "CCCCN1CCCC[C@@H]1C(=O)N[C@H](C(=O)N(C)[C@H](CCc1nc(C(=O)N[C@@H](Cc2ccccc2)C[C@H](C)C(=O)OC)cs1)C(C)C)[C@@H](C)CC"
  experimental target: "HCT-116 colon"
  growth (%): 31.6
- compound: "C=CCc1cc2c(cc1OCC)OCO2"
  experimental target: "HCT-116 colon"
  growth (%): 85.5
- compound: "COc1ccc(/C=C\\c2cc(OC)c(OC)c(OC)c2)cc1OCC(=O)Nc1nc2ccc(OC(F)(F)F)cc2s1"
  experimental target: "HCT-116 colon"
  growth (%): 19.5

Next:
Return value of growth for input CC(C)(C)C(=O)OCOP(=O)(OCOC(=O)C(C)(C)C)C1CCCN(O)C1=O (stereo not given) , no commentary.
1.32

====

tested on: OVCAR-3 ovarian; test: NCI-60 one-dose screen, 48 h (100 = growth as untreated, 0 = no growth, -100 = all killed); details: 10 µM unless noted
Compounds without any hit were thinned out: in the full panel of roughly 83,000, 20% have a hit.
Labelling: growth reported below -10% becomes met; at or above becomes not met.

- molecule: "CCOC(=O)C(Cc1ccc(N(CCCl)CCCl)cc1)NC(=O)C(CC(C)C)NC(C)=O (centres undefined)"
  experimental target: "OVCAR-3 ovarian"
  group: "met"

Dear reviewer, please state whether O=Cc1cn(Cc2ccc(Cl)cc2)c2ccccc12 has growth strictly beneath -10%.
not met

Would you kindly verify if growth of COC(=O)[C@@H](C)C[C@H](Cc1ccccc1)NC(=O)c1csc([C@@H](C[C@H](C(C)C)N(C)C(=O)[C@H](C)NC(=O)[C@H]2CCCN2C)OC(C)=O)n1 is strictly less than -10%?
not met

Lab note: growth threshold -10%. Does this molecule come in strictly under it? CC(=O)ONc1ccc([N+](=O)[O-])c(C(F)(F)F)c1
not met

Does Oc1c(O)c(Cl)c(Cl)c(Cl)c1Cl have growth strictly under -10%?
met

Bench note: check whether C[C@]12CC[C@H]3[C@@H](CC[C@]4(O)C[C@@H](O[C@@H]5O[C@H](CO)[C@@H](O[C@@H]6OC[C@@H](O)[C@H](O)[C@H]6O)[C@H](O)[C@H]5O)CC[C@]34C=O)[C@@]1(O)CC[C@@H]2C1=CC(=O)OC1 shows growth below -10%
met

Strictly below -10%: is that where growth of CC(C)OC(=O)[C@H](C)NP(=O)(Oc1ccccc1)C1CCCN(O)C1=O (some centres undefined) sits?
not met

Report whether reported growth is lower than -10% (strictly) for NC(=S)c1cn(C2OC(CO)C(O)C2O)c2ncnc(N)c12 (centres undefined)
met

In plain terms, does c1ccc(CSC(c2ccccc2)c2ccccc2)cc1 come in under -10% for growth?
not met

====

test system: SK-OV-3 ovarian; test: NCI-60 one-dose screen, 48 h (100 = growth as untreated, 0 = no growth, -100 = all killed); settings: 10 µM unless noted
The panel holds about 83,000 compounds, 20% with a hit somewhere; the sample as a whole holds those more often.
growth for assorted compounds
The response must be a number in % with no trailing unit.

Previously resolved entries follow.
- compound: "C[C@]12CC[C@H]3[C@@H](C[C@@H]4SC(Nc5ccccc5)=N[C@@]45CC(O)CC[C@]35C)[C@@H]1CCC2O (stereo partly drawn)"
  experimental target: "SK-OV-3 ovarian"
  growth (%): 89.6
- compound: "COc1ccc(N(CC(=O)NCCC[Te]c2ccccc2)C(=O)CNC(=O)OC(C)(C)C)cc1"
  experimental target: "SK-OV-3 ovarian"
  growth (%): -7.96
- compound: "C=CCCCCCCCCC(=O)[O-].C=CCCCCCCCCC(=O)[O-].[Zn+2]"
  experimental target: "SK-OV-3 ovarian"
  growth (%): 112
- compound: "O=C([O][Hg][CH2]C1COCC([CH2][Hg][O]C(=O)c2ccccc2)O1)c1ccccc1 (stereo not drawn)"
  experimental target: "SK-OV-3 ovarian"
  growth (%): 118
- compound: "Cc1ccccc1NC(=NCCCN1CC1)Nc1ccccc1C"
  experimental target: "SK-OV-3 ovarian"
  growth (%): 79.9
- compound: "COc1cccc2c1c(C(=O)C(=O)Nc1ccn[nH]1)cn2Cc1ccc(F)cc1"
  experimental target: "SK-OV-3 ovarian"
  growth (%): 95.9
- compound: "CN1CCC(c2c[nH]c3ccccc23)C1 (stereo not drawn)"
  experimental target: "SK-OV-3 ovarian"
  growth (%): 99.4
- compound: "ClCCN(CCCl)c1nc(Cl)c(C2CC(c3ccccc3)=NN2c2cc(Cl)cc(Cl)c2)s1 (stereo not drawn)"
  experimental target: "SK-OV-3 ovarian"
  growth (%): 105
- compound: "COC(=O)[C@@H](C)C[C@H](Cc1ccccc1)NC(=O)c1nc([C@@H](C[C@H](C(C)C)N(C)C(=O)[C@@H](NC(=O)[C@H]2C[C@H](O)CCN2C)C(C)C)OC(C)=O)sc1C(C)C"
  experimental target: "SK-OV-3 ovarian"
  growth (%): 2.1
- compound: "COc1ccc2c(c1)c(-c1nc(-c3cn(C)c4ncccc34)cs1)cn2CCCCN1CCCCC1"
  experimental target: "SK-OV-3 ovarian"
  growth (%): 38.5

Provide one value: measured growth of CC(C)[C@]12O[C@H]1[C@@H]1O[C@]13[C@]1(O[C@H]1C[C@H]1c4c(C(=O)c5ccccc5)oc(OC(=O)c5ccccc5)c4CC[C@@]13C)[C@@H]2O
27.3

Entry CCC1CN1CCCCN1CC1CC (stereo not drawn) needs its growth filled in; supply it.
110

Specify measured growth for N#Cc1c(Br)n(C2OC(CO)C(O)C2O)c2ncnc(N)c12 (stereo not drawn) .
78.3

====

system: HL-60(TB) leukemia; test: NCI-60 one-dose screen, 48 h; settings: 10 µM unless noted
Compounds without any hit were thinned out: in the full panel of roughly 83,000, 20% have a hit. Activity calls are given as the source filed them. How the source made its calls: active means growth percent below 10; inactive means the rest.
Allowed answers: active, inactive

- compound: "CCOC(=O)C(Cc1ccc(N(CCCl)CCCl)cc1)NC(=O)C(CC(C)C)NC(C)=O (stereo unspecified)"
  group: "inactive"
- compound: "Cn1cc(-c2csc(-c3cn(CCN4CCOCC4)c4ccccc34)n2)c2cccnc21"
  group: "inactive"
- compound: "C[n+]1c(/C=C/c2ccc(N(CCCl)CCCl)cc2)sc2ccccc21"
  group: "inactive"
- compound: "Nc1ccc2c(c1)oc1ccccc12"
  group: "inactive"
- compound: "C=CC[Se]C(=O)c1ccccc1OC(C)=O"
  group: "active"

For the next question, use this compound.
In this assay, the call recorded for CS(=O)(=O)CCN1CC2CCCC(C2)C1 was what?
inactive

====

tested on: SF-539 CNS; assay: NCI-60 one-dose screen, 48 h (100 = growth as untreated, 0 = no growth, -100 = all killed); settings: 10 µM unless noted
The panel holds about 83,000 compounds, 20% with a hit somewhere; the sample as a whole holds those more often.
Catalogue of molecules with associated growth
Kindly provide the numeric value in % only, without the unit symbol.

Below: 5 molecules and their reported growth.
- structure smiles: "Cc1ccc(S(=O)(=O)C(Cl)(Cl)Cl)cc1"
  unit abbreviation: "%"
  growth: 99.9
- structure smiles: "N#CCCNc1ccccc1"
  unit abbreviation: "%"
  growth: 98.1
- structure smiles: "CC1=C(CN)C2=C(C)C3(CC3)[C@@](C)(O)C(=O)C2=C1"
  unit abbreviation: "%"
  growth: 94.8
- structure smiles: "CC(=O)O[C@H]1C(=O)[C@@]2(C)[C@H]([C@H](OC(=O)c3ccccc3)[C@]3(O)C[C@H](OC(=O)[C@H](OC(=O)OC[C@H]4COC(C)(C)O4)[C@@H](NC(=O)c4ccccc4)c4ccccc4)C(C)=C1C3(C)C)[C@]1(OC(C)=O)CO[C@@H]1C[C@@H]2O"
  unit abbreviation: "%"
  growth: -13.3
- structure smiles: "Nc1c(F)cc(-c2nc3cc(F)ccc3[se]2)cc1F"
  unit abbreviation: "%"
  growth: 96.3

Lab note: SF-539 CNS assay, enter growth for CC[C@H](C)[C@H](NC(=O)C12CC(NC(C)=O)(C1)C2)C(=O)N(C)[C@H](C[C@@H](OC(C)=O)c1nc(C(=O)N[C@@H](Cc2ccccc2)C[C@H](C)C(=O)OC)cs1)C(C)C here
1.61

Provide the reported growth (system: SF-539 CNS) for COC(=O)[C@@]1(O)C[C@H]2O[C@]1(C)n1c3ccccc3c3c4c(c5c6ccccc6n2c5c31)C(=O)NC4
-88

GET growth where system = SF-539 CNS and item = O=[N+]([O-])c1cnc[nH]1
110

Data provenance is PubChem BioAssay (NCI).
